Assay: Tmax in Sprague-Dawley rat at 50 mg/kg, po
Type: ADME, organism-based
Set-up: dose 50 mg/kg, route oral
Conditions: in vivo
quantity: Tmax (min)
Give the value in min but do not write min after it.

IN: Given `N#C[C@@H]1C[C@H](F)CN1C(=O)[C@@H](N)Cc1cscn1` , state its recorded Tmax.
OUT: 18

---

Assay: Cmax in Sprague-Dawley rat at 20 mg/kg, po
Type: ADME, organism-based
Parameters: dose 20 mg/kg, route oral
Details: in vivo
quantity: Cmax (ng/mL)
Give the value in ng/mL but do not write ng/mL after it.

IN: Given `N#C[C@@H]1C[C@H](F)CN1C(=O)[C@@H](N)Cc1cc2c(cc1Br)OCO2` , state its recorded Cmax.
OUT: 2200

---

Assay: AUC (0 to t) in Sprague-Dawley rat at 20 mg/kg, iv
Type: ADME, organism-based
Design: dose 20 mg/kg, route intravenous
Conditions: plasma
quantity: AUC(0-t)
Hey, just the number and the unit after it is fine.

IN: Given `N#C[C@@H]1C[C@H](F)CN1C(=O)[C@@H](N)Cc1cscn1` , state its recorded AUC(0-t).
OUT: 2.89 µg·h/mL

---

Experiment: Cmax in Sprague-Dawley rat at 50 mg/kg, po
Type: ADME, organism-based
Design: dose 50 mg/kg, route oral
Conditions: in vivo
quantity: Cmax (ng/mL)
Give the value in ng/mL but do not write ng/mL after it.

IN: Given `N#C[C@@H]1C[C@H](F)CN1C(=O)[C@@H](N)Cc1cscn1` , state its recorded Cmax.
OUT: 2710

---

Experiment: Tmax in Sprague-Dawley rat at 20 mg/kg, po
Assay type: ADME, organism-based
Set-up: dose 20 mg/kg, route oral
Settings: in vivo
quantity: Tmax (min)
Give the value in min but do not write min after it.

IN: Given `N#C[C@@H]1C[C@H](F)CN1C(=O)[C@@H](N)Cc1cc2c(cc1Br)OCO2` , state its recorded Tmax.
OUT: 18

---

Assay: AUC (0 to infinity) in Sprague-Dawley rat at 20 mg/kg, po
Type: ADME, organism-based
Design: time infinity, dose 20 mg/kg, route oral
Conditions: plasma
quantity: AUC(0-inf) (ng·h/mL)
Give the value in ng·h/mL but do not write ng·h/mL after it.

IN: Given `N#C[C@@H]1C[C@H](F)CN1C(=O)[C@@H](N)Cc1cc2c(cc1Br)OCO2` , state its recorded AUC(0-inf).
OUT: 1580

---

Target: Voltage-gated inwardly rectifying potassium channel KCNH2 (Homo sapiens, UniProt Q12809)
Sequence (Q12809 whole entry): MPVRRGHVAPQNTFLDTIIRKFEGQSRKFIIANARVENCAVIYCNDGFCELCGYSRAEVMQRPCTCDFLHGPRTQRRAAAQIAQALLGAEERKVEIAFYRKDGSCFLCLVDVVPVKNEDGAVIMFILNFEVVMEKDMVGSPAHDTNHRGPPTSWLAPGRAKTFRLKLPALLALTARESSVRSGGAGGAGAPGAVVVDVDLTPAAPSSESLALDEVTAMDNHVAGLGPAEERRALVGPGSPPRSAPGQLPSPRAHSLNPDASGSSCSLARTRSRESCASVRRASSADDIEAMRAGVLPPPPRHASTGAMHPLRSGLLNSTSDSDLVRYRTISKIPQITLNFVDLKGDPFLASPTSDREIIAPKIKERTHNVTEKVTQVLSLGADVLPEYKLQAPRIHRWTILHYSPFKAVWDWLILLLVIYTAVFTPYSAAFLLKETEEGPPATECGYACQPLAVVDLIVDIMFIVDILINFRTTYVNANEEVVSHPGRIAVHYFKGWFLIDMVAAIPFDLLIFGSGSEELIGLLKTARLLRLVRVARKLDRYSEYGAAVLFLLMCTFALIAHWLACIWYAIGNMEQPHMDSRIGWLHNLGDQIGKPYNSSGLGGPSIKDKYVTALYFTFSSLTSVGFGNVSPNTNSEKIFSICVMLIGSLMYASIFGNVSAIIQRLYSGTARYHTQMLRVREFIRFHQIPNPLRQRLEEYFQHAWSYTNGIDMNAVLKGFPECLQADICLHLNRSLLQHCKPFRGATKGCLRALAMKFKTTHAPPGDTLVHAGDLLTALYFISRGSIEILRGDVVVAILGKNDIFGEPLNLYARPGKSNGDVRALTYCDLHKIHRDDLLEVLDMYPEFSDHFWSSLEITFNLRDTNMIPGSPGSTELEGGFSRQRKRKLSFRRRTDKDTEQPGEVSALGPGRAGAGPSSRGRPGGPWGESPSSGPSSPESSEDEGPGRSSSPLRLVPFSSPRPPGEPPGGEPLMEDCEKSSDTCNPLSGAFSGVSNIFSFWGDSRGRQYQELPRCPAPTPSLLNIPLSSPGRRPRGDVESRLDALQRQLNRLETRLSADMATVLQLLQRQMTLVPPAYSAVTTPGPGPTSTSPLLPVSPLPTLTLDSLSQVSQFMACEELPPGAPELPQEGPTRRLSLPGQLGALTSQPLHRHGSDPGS
quantity: IC50 (µM)
Give the value in µM but do not write µM after it.

IN: Return IC50 measured with Voltage-gated inwardly rectifying potassium channel KCNH2 (Homo sapiens, UniProt Q12809) given this molecule: `N#C[C@@H]1C[C@H](F)CN1C(=O)[C@@H](N)Cc1cscn1`
OUT: 177

---

Test: AUC (0 to infinity) in Sprague-Dawley rat at 20 mg/kg, iv
Format: ADME, organism-based
Design: time infinity, dose 20 mg/kg, route intravenous
Details: plasma
quantity: AUC(0-inf)
Hey, just the number and the unit after it is fine.

IN: Given `N#C[C@@H]1C[C@H](F)CN1C(=O)[C@@H](N)Cc1cscn1` , state its recorded AUC(0-inf).
OUT: 2900 ng·h/mL

---

Molecular target: CYP2C9 (Homo sapiens, UniProt P11712)
Sequence (P11712 whole entry): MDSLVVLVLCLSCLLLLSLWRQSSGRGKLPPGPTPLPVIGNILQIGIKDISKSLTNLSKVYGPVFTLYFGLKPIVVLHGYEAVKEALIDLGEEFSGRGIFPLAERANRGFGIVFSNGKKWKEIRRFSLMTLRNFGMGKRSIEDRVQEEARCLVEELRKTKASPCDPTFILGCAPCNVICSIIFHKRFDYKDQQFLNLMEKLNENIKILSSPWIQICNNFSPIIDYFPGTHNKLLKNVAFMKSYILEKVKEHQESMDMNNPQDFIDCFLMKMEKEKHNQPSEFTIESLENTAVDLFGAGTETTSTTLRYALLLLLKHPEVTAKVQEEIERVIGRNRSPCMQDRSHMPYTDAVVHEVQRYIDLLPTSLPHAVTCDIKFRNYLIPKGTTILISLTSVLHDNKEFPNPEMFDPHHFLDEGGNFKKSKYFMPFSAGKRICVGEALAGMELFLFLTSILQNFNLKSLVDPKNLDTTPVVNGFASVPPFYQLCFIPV
Assay: Inhibition of CYP2C9 (unknown origin) at 100 uM relative to control
Format: ADME
quantity: inhibition at 100 µM
Hey, just the number and the unit after it is fine.

INSERT INTO assay_data (chemical_string, result) VALUES
  ('N#C[C@@H]1C[C@H](F)CN1C(=O)[C@@H](N)Cc1cc2c(cc1Br)OCO2', '-20.3%');

# next molecule below
IN: Given `N#C[C@@H]1C[C@H](F)CN1C(=O)[C@@H](N)Cc1cscn1` , state its recorded inhibition at 100 µM.
OUT: 11.2%
